TARGET_ENTITY: NLRP3 (Homo sapiens, UniProt Q96P20)
Sequence (Q96P20 whole entry): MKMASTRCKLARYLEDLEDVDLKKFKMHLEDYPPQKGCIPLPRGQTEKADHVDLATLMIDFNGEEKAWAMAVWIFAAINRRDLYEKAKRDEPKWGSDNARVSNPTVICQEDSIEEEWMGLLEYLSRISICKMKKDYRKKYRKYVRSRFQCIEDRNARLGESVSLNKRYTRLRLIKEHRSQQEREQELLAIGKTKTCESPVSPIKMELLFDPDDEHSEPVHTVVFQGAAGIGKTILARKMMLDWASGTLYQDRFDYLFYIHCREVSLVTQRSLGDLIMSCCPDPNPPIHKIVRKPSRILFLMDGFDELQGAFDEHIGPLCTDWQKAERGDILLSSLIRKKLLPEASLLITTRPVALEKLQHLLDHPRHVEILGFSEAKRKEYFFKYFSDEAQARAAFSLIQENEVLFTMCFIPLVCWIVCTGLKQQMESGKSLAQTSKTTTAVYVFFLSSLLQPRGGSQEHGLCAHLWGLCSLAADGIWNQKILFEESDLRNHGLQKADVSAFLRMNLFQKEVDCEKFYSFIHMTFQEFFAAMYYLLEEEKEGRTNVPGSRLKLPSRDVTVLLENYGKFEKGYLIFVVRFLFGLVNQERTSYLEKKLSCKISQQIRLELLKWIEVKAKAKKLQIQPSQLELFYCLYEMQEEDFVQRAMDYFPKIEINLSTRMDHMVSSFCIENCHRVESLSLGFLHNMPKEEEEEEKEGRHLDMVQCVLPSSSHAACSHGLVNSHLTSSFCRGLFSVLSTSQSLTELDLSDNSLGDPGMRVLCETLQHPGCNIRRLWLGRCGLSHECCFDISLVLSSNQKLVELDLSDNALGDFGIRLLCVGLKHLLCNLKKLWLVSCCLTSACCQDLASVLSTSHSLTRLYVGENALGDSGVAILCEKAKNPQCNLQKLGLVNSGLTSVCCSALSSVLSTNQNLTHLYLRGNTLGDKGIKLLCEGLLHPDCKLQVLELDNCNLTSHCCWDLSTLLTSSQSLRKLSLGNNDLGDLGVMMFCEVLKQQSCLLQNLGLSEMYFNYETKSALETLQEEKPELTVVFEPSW
TEST_NAME: IL-1β Secretion Assay (NLRP3-dependent IL1β secretion in THP1 cells)
CONDITION_NOTES: PMA-differentiated THP-1 cells; compounds incubated 20 h; 2.5 μM Nigericin 3 h; HTRF IL-1β readout; read-out: IC50 IL-1β Inhibition
pIC50: −log10 of the molar value.
pIC50 for assorted compounds

> print(dat)
                                   compound  experimental.value
1  CN1CCCC(Nc2nnc(-c3ccc(C(F)(F)F)cc3CC(F)(F)F)c3cncn23)C1=O (stereo not drawn)        8.00 to 9.00
2  Cc1ccc(-c2nnc(N[C@@H]3CCCN(C)C3)n3cncc23)c(OC(F)F)c1        8.00 to 9.00
3  COc1ccc(-c2nnc(N[C@@H]3CCCN(CCO)C3)n3ccc(F)c23)c(Cl)c1        8.00 to 9.00
4  COc1ccc(-c2nnc(NCC(C)(C)O)n3cccc23)c(OC(F)(F)F)c1        7.00 to 8.00

Entry O[C@H]1CCCC[C@@H]1Nc1nnc(-c2ccc(C(F)(F)F)cc2OC(F)F)c2cccn12 , tested on NLRP3 (Homo sapiens, UniProt Q96P20), has a reported pIC50 of 7.00 to 8.00

Entry OC[C@H]1C[C@@H](Nc2nnc(-c3ccc(C(F)(F)F)cc3OC(F)(F)F)c3cncn23)C1 , tested on NLRP3 (Homo sapiens, UniProt Q96P20), has a reported pIC50 of 8.00 to 9.00

* * *

IC50 for assorted molecules
TARGET_ENTITY: NLRP3 (Homo sapiens)
TEST_NAME: IL-1β Secretion Assay (NLRP3-dependent IL1β secretion in THP1 cells)
CONDITION_NOTES: PMA-differentiated THP-1 cells; compounds incubated 20 h; 2.5 μM Nigericin 3 h; HTRF IL-1β readout; read-out: IC50 IL-1β Inhibition

Take a look at these entries with their results.
> print(dat)
                                   molecule  experimental.value
1  O=C1NCCC1Nc1nnc(-c2ccc(Cl)cc2OC(F)(F)F)c2cncn12 (stereo not drawn)          1 to 10 nM
2  Cc1cc2c(-c3ccc(C(F)(F)F)cc3OC(F)F)nnc(NC(C)c3cccc(O)c3)n2n1 (stereo not drawn)          1 to 10 nM

// field: IC50; key: COc1ccc(-c2nnc(NCc3nncn3C)n3cccc23)c(OC(F)(F)F)c1 ; value = 100 to 300 nM

// field: IC50; key: COc1ccc(-c2nnc(NC(C)c3cccnc3)n3cncc23)c(OC(F)(F)F)c1 (single isomer, unassigned) [Compound 309] ; value = 10 to 100 nM

// field: IC50; key: COc1ccc(-c2nnc(N[C@@H]3C[C@@H](F)CN(C)C3)n3cccc23)c(OC(F)(F)F)c1 ; value = 1 to 10 nM

* * *

TARGET_ENTITY: NLRP3 (Homo sapiens)
TEST_NAME: IL-1β Secretion Assay (NLRP3-dependent IL1β secretion in THP1 cells)
CONDITION_NOTES: PMA-differentiated THP-1 cells; compounds incubated 20 h; 2.5 μM Nigericin 3 h; HTRF IL-1β readout; read-out: IC50 IL-1β Inhibition
pIC50: −log10 of the molar value.
MEASUREMENT_KIND: pIC50

> print(dat)
                                   molecule         target.entity  experimental.value
1  COc1ccc(-c2nnc(NC3CCNC3=O)n3cncc23)c(OC(F)(F)F)c1 (stereo not shown)  NLRP3 (Homo sapiens)        7.00 to 8.00
2  CCC(=O)c1ccc(-c2nnc(N[C@@H]3CCCN(C)C3)n3cccc23)c(OC(F)F)c1  NLRP3 (Homo sapiens)        8.00 to 9.00
3  COc1ccc(-c2nnc(N[C@H]3C[C@@](C)(CO)C3)n3cncc23)c(CC(F)(F)F)c1  NLRP3 (Homo sapiens)        7.00 to 8.00

Pending molecule:
// field: pIC50; key: CCN1CCC[C@@H](Nc2nnc(-c3ccc(C)cc3OC(F)F)c3cccn23)C1 ; value = 8.00 to 9.00
